- Test system: gastric secretion (HCl)
- Experiment Description: Inhibition of the HCl secretion of the stomach, Shay rats
- Format: in vivo, rat
- Run Conditions: Rattus norvegicus, po, orally, total 4 h, dose which reduces HCl secretion by 25% vs control
- Experimental: The investigated compounds according to the invention have been given numbers as follows: The effects of the investigated compounds on the formation of stomach lesions induced by pylorus ligature and oral administration of 100 mg/kg of acetylsalicylic acid and the gastric secretion (HCl) for 4 h in rats (so-called Shay rats) are shown in the table which follows. + ED25 and ED50 = dose which reduces the lesion index and the HCl secretion (Σ4 h) of the rat stomach in the treated group by 25 and […]
Parameter Measured: ED25 (mg/kg)
// units = mg/kg; emit number, no label

COc1ccnc(C[S+]([O-])c2nc3c(C)c(OC(F)F)c(C)cc3[nH]2)c1C (stereo not shown) [Serial No. 1] : 0.5

Proceeding to the next compound to report its ED25.
Ask: Supply recorded ED25 for COc1ccnc(C(C)[S+]([O-])c2nc3cc(OC(F)(F)C(F)Cl)ccc3[nH]2)c1 (stereo not shown) [Serial No. 7] here.
Reply: 0.4

* * *

- Tested on: gastric secretion (HCl)
- Experiment Description: Inhibition of the HCl secretion of the stomach, Shay rats
- Assay type: in vivo, rat
- Run Conditions: Rattus norvegicus, po, orally, total 4 h, dose which reduces HCl secretion by 25% vs control
Listing of recorded ED25 by entry.
Numeric only. Scale: mg/kg

Worked set:
COc1ccnc(C[S+]([O-])c2nc3cc(OC(F)(F)C(F)Cl)ccc3[nH]2)c1 (stereo not drawn) : 0.55
COc1ccnc(C[S+]([O-])c2nc3cc(OC(F)(F)C(F)Cl)ccc3[nH]2)c1C (stereo not drawn) : 0.4
COc1ccnc(CSc2nc3c(C)c(OC(F)F)c(C)cc3[nH]2)c1C : 1

Ask: Give me measured ED25, please, for this compound: COc1ccnc(C(C)[S+]([O-])c2nc3cc(OC(F)(F)C(F)F)ccc3[nH]2)c1 (stereo not drawn)
Reply: 0.35

Ask: For the compound COc1ccnc(C(C)[S+]([O-])c2nc3cc4c(cc3[nH]2)OC(F)(F)O4)c1 (stereo not drawn) , report ED25.
Reply: 1
